Recorded inhibition, one value per entry.
target under test: Epidermal growth factor receptor (Homo sapiens)
Sequence (P00533 whole entry): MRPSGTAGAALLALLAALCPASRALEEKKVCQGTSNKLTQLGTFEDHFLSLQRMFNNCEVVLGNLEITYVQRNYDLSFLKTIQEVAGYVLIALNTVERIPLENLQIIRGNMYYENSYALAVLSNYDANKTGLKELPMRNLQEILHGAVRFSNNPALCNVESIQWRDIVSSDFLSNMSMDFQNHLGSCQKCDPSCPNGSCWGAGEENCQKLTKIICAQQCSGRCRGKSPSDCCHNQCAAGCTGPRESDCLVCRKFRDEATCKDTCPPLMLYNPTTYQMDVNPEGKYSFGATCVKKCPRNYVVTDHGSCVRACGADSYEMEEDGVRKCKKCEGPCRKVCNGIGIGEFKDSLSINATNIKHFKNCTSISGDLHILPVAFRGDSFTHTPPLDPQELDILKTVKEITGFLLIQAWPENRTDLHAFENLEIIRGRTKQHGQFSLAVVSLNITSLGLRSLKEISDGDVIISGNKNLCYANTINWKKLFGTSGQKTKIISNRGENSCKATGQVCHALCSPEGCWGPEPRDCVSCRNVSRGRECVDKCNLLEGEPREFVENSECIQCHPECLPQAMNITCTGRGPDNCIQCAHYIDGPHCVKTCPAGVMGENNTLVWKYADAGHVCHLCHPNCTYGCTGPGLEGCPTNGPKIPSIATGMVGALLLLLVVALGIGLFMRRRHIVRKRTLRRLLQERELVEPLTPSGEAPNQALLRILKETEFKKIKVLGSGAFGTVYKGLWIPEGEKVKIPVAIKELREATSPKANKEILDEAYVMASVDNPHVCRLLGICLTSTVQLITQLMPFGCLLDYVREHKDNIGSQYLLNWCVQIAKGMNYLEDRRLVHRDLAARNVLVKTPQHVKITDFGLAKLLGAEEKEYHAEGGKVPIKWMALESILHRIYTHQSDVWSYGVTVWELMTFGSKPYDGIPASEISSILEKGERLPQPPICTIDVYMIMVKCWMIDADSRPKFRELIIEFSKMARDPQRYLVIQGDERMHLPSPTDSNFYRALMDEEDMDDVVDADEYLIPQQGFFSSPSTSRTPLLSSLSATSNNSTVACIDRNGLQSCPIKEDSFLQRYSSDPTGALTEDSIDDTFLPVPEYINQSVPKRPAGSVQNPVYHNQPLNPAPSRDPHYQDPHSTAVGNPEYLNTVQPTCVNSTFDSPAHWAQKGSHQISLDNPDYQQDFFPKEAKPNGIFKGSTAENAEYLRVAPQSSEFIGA
settings: A549, at 1 µM

{"sample smiles": "CCOc1cc2ncnc(Nc3ccc(F)c(Cl)c3)c2cc1NC(=O)CCN1CCCCC1", "inhibition, %": 98}
{"sample smiles": "CCOc1cc2ncc(C#N)c(Nc3ccc(OCc4ccccn4)c(Cl)c3)c2cc1NC(=O)CCN1CCCCC1", "inhibition, %": 71}
{"sample smiles": "CCOc1cc2ncc(C#N)c(Nc3ccc(OCc4ccccn4)c(Cl)c3)c2cc1NC(=O)CCN(C)C", "inhibition, %": 61}
{"sample smiles": "C=CC(=O)Nc1cc2c(Nc3ccc(F)c(Cl)c3)ncnc2cc1OCC", "inhibition, %": 96}
{"sample smiles": "O=C(CCN1CCCCC1)Nc1ccc2ncnc(Nc3cccc(Br)c3)c2c1", "inhibition, %": 95}
{"sample smiles": "CCOc1cc2ncc(C#N)c(Nc3ccc(F)c(Cl)c3)c2cc1NC(=O)CCN(C)C", "inhibition, %": 88}
{"sample smiles": "O=C(CCN1CCOCC1)Nc1ccc2ncnc(Nc3cccc(Br)c3)c2c1", "inhibition, %": 98}
{"sample smiles": "CCOc1cc2ncc(C#N)c(Nc3ccc(OCc4ccccn4)c(Cl)c3)c2cc1NC(=O)CCN1CCOCC1", "inhibition, %": 48}
{"sample smiles": "CN(C)CCC(=O)N(C)c1ccc2ncnc(Nc3cccc(Br)c3)c2c1", "inhibition, %": 47}
{"sample smiles": "C=CC(=O)Nc1cc2c(Nc3ccc(F)c(Cl)c3)c(C#N)cnc2cc1OCC", "inhibition, %": 92}
{"sample smiles": "CCOc1cc2ncnc(Nc3ccc(F)c(Cl)c3)c2cc1NC(=O)CCN(C)C", "inhibition, %": 98}
{"sample smiles": "CCOc1cc2ncnc(Nc3ccc(F)c(Cl)c3)c2cc1NC(=O)CCN1CCOCC1", "inhibition, %": 97}
{"sample smiles": "CCOc1cc2ncc(C#N)c(Nc3ccc(F)c(Cl)c3)c2cc1NC(=O)CCN1CCOCC1", "inhibition, %": 86}
{"sample smiles": "CCOc1cc2ncc(C#N)c(Nc3ccc(F)c(Cl)c3)c2cc1NC(=O)CCN1CCCCC1", "inhibition, %": 92}
